Tested on: HPAF-II
protocol description: Antitumor activity against human HPAF-II cells measured after 72 hrs
Format: functional, cell-based
Listed compounds paired with reported IC50
readout name: IC50 (nM)

[[record]]
compound = "C=C(C)[C@@H]1CC[C@]2(C(=O)NCC(C)(C)CN(C)C)CC[C@]3(C)[C@H](CC[C@@H]4[C@@]5(C)CC[C@H](O)C(C)(C)[C@@H]5CC[C@]43C)[C@@H]12"
experimental_system = "HPAF-II"
readout_name = "IC50"
units_label = "nM"
recorded_measurement = 440

[[record]]
compound = "C=C(C)[C@@H]1CC[C@]2(C(=O)NCCCN(C)C)CC[C@]3(C)[C@H](CC[C@@H]4[C@@]5(C)CC[C@H](N)C(C)(C)[C@@H]5CC[C@]43C)[C@@H]12"
experimental_system = "HPAF-II"
readout_name = "IC50"
units_label = "nM"
recorded_measurement = 370

[[record]]
compound = "C=C(C)[C@@H]1CC[C@]2(C(=O)NCCN(CC)CC)CC[C@]3(C)[C@H](CC[C@@H]4[C@@]5(C)CC[C@H](O)C(C)(C)[C@@H]5CC[C@]43C)[C@@H]12"
experimental_system = "HPAF-II"
readout_name = "IC50"
units_label = "nM"
recorded_measurement = 120

[[record]]
compound = "C=C(C)[C@@H]1CC[C@]2(C(=O)NCCN3CCC(O)C3)CC[C@]3(C)[C@H](CC[C@@H]4[C@@]5(C)CC[C@H](O)C(C)(C)[C@@H]5CC[C@]43C)[C@@H]12 (stereo not given in full)"
experimental_system = "HPAF-II"
readout_name = "IC50"
units_label = "nM"
recorded_measurement = 310

[[record]]
compound = "C=C(C)[C@@H]1CC[C@]2(C(=O)NC[C@H]3CCCN3C)CC[C@]3(C)[C@H](CC[C@@H]4[C@@]5(C)CC[C@H](O)C(C)(C)[C@@H]5CC[C@]43C)[C@@H]12"
experimental_system = "HPAF-II"
readout_name = "IC50"
units_label = "nM"
recorded_measurement = 350


Data origin, for the record: ChEMBL document CHEMBL5620362
